TARGET SYSTEM: SARS-CoV-2 receptor binding domain (RBD) (SARS-CoV-2, GenBank MN985325.1 …, UniProt P0DTC2)
TEST PROTOCOL: BLI
RUN CONDITIONS: both partners purified
pKd: −log10 of the molar value.
Parameter pKd: see the listing below.

BINDER	pKd
C888 (antibody, V domains shown, source: recombinant, purified) VH: EVQLVESGGGLVQPGGSLRLSCAASGFTVSSNYMSWVRQAPGKGLEWVSVIYSGGSAYYADSVKGRFTISRDNSKNTLYLQMNSLRAEDTAVYYCARDLRDQDGYSYGAFDYWGQGTLVTVSS VL: QSALTQPASVSGSPGQSITISCTGTSSDVGGYNYVSWYQQHPGKAPKLMIYDVSNRPSGVSNRFSGSKSGNTASLTISGLQAEDEADYYCSSYTSSSSWVFGGGTKLTVL	5.14
C1010 (antibody, V domains shown, source: recombinant, purified) VH: QVQLVESGGGVVQPGRSLRLSCAASGFTFSSYAMHWVRQAPGKGLEWVAVISYDGSNKYYADSVKGRFTISRDNSKNTLYLQMNSLRAEDTAVYYCAKKGQPYCGGDCYFYYFDYWGQGTLVTVSS VL: DIQMTQSPSSLSASLGDRVTITCQASQDISNYLNWYQQKPGKAPKLLIYDASNLETGVPSRFSGSGSGTDFTFTISSLQPEDIATYYCQQYDNLPPITFGQGTRLEIK	7.79

All values here come from paper PMC8277577.
